I'd appreciate it if you could supply IC50 values for the items below.
System: counterscreen cell line, fluorescence, non-specific activators
Assay: non-specific activators in counterscreen cell line, dose response, counter-screen for GalR3 antagonist project, fluorescence, late stage (AID 743092)
The source made the active and inactive calls. The rule behind the calls is not given here.

Name the recorded IC50 of the compound listed here: O=C(COc1ccc(C(=O)c2ccccc2)cc1)Nc1cccnc1
> 29.9 µM (inactive)

Name the recorded IC50 of the compound listed here: Cc1nc2ccccc2n1Cc1ccc(Cl)cc1
> 29.9 µM (inactive)

Name the recorded IC50 of the compound listed here: Cc1ccc(Oc2ccc(OCC(=O)Nc3ccncc3)cc2)cc1
> 29.9 µM (inactive)

Name the recorded IC50 of the compound listed here: COc1ccc(CN2CCC(C(=O)Nc3ccc(Oc4ccccc4)nc3)CC2)cc1F
> 29.9 µM (inactive)

Name the recorded IC50 of the compound listed here: N#Cc1cc(-c2ccccc2)oc1NC(=O)c1ccco1
> 29.9 µM (inactive)

Name the recorded IC50 of the compound listed here: NC(=O)c1c(-c2ccc(Cl)cc2Cl)csc1NC(=O)Cc1ccccc1
> 29.9 µM (inactive)

Name the recorded IC50 of the compound listed here: CCCCCn1c(=O)[nH]c2cc(C(=O)N3CCN(Cc4ccc5c(c4)OCO5)CC3)ccc2c1=O
> 29.9 µM (inactive)

Name the recorded IC50 of the compound listed here: COc1ccc(CN(C)c2ccc(S(=O)(=O)N3CCN(C)CC3)cc2[N+](=O)[O-])cc1OC
> 29.9 µM (inactive)

Name the recorded IC50 of the compound listed here: COc1ccc(NS(=O)(=O)c2ccc(NC(=O)c3ccc(CN4CCOCC4)cc3)cc2)cc1
> 29.9 µM (inactive)

Name the recorded IC50 of the compound listed here: Cc1ccccc1Cn1c(C)nc2ccccc21
> 29.9 µM (inactive)

Name the recorded IC50 of the compound listed here: Nc1cc(-c2ccc(Br)cc2)nn1Cc1ccccc1
> 29.9 µM (inactive)

====

Tested on: counterscreen cell line, fluorescence, non-specific activators
Assay: non-specific activators in counterscreen cell line, dose response, counter-screen for GalR3 antagonist project, fluorescence, late stage (AID 743092)
Active and inactive are the calls of the source. No rule for the calls is given here.
I'd appreciate it if you could supply IC50 values for the items below.

Name the recorded IC50 of the compound listed here: Fc1ccc(NC(=S)N2CCCN(c3ccc(C(F)(F)F)cn3)CC2)c(F)c1
> 29.9 µM (inactive)

Name the recorded IC50 of the compound listed here: Cc1nn(C)c(Nc2ccc(Br)cc2)c1Br
> 29.9 µM (inactive)

Name the recorded IC50 of the compound listed here: O=S(=O)(NCc1ccncc1)c1ccc(Br)s1
> 29.9 µM (inactive)

Name the recorded IC50 of the compound listed here: Nc1nonc1-n1nnc(C(=O)N/N=C/c2cc(Br)ccc2O)c1CSC1=NCCS1
> 29.9 µM (inactive)

Name the recorded IC50 of the compound listed here: CCOC(=O)c1[nH]c2ccc(OC)cc2c1NS(=O)(=O)c1ccc(Cl)s1
> 29.9 µM (inactive)

Name the recorded IC50 of the compound listed here: CC1CC(=O)NN=C1c1ccc(N)c([N+](=O)[O-])c1 (stereo unspecified)
> 29.9 µM (inactive)

Name the recorded IC50 of the compound listed here: COc1cc2c(cc1OC)[C@@H]1C(=O)c3ccc4c(c3O[C@@H]1CO2)C[C@H](C(C)C)O4
> 29.9 µM (inactive)

Name the recorded IC50 of the compound listed here: CC(=O)c1c(C)[nH]c(C(=O)COc2cc(C)ccc2C(C)C)c1C
> 29.9 µM (inactive)

Name the recorded IC50 of the compound listed here: COc1cccc2[nH]c3c(N4CCC(C)CC4)ncnc3c12
> 29.9 µM (inactive)

Name the recorded IC50 of the compound listed here: O=C(CSc1nnc(Cn2nnc3ccccc32)o1)N(Cc1ccc(F)cc1)c1ccccc1
> 29.9 µM (inactive)

Name the recorded IC50 of the compound listed here: CC(C)(C)NC(=O)COC(=O)c1snc(C(=O)NC2CCCCC2)c1N
> 29.9 µM (inactive)
